molecular target: hCB1-CHO membranes (Homo sapiens); assay: CB1 in vitro functional assay, SPA based GTP-γ-35S binding, agonist mode (whole membrane capture); conditions: normalized to methanandamide, read-out: relative EC50 value for CB1
Sequence (P21554 whole entry): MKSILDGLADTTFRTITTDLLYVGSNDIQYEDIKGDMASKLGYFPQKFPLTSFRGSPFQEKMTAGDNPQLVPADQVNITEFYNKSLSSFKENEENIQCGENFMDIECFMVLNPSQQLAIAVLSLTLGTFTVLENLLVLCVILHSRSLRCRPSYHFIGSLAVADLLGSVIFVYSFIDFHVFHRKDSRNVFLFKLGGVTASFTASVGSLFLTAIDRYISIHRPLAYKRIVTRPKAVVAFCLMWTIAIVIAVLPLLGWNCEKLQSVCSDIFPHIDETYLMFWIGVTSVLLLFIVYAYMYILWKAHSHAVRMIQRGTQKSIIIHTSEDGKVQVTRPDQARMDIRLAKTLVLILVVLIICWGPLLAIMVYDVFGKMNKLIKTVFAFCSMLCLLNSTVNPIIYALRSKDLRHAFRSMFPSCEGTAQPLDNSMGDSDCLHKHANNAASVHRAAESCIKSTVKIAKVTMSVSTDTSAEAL
Where a name gives a salt, the structure may show the parent alone.
Endpoint: pEC50
pEC50 is a log-scale quantity: -log10 of the concentration expressed in molar.

In plain terms, CCN1CCN(c2nc(C)nc3c2nc(-c2ccccc2Cl)n3CCS(C)(=O)=O)CC1 [Example 2, hydrochloride] has a documented pEC50 of 5.25

* * *

Target: rat CB2 receptor (Rattus norvegicus)
Sequence (Q9QZN9 1-360): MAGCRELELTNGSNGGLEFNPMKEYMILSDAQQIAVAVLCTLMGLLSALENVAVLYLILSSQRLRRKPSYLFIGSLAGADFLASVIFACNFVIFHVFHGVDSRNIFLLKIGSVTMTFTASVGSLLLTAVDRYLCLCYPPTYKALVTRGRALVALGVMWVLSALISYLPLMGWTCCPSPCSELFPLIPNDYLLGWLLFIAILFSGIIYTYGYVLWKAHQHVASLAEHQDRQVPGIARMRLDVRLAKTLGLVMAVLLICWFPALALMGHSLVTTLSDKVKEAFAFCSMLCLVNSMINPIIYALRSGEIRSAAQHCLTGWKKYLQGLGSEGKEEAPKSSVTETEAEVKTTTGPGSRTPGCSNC
Where a name gives a salt, the structure may show the parent alone.
Reported Ki by item:
Give the value in nM but do not write nM after it.

INSERT INTO measurements (compound, target, endpoint, readout_number) VALUES
  ('Cc1nc(N2CCN(C)CC2)c2nc(-c3ccccc3Cl)n(CC#N)c2n1 [Example 3, hydrochloride]', 'rat CB2 receptor (Rattus norvegicus)', 'Ki', 12.6);

In plain terms, CCN1CCN(c2nc(C)nc3c2nc(-c2ccccc2Cl)n3CCS(C)(=O)=O)CC1 [Example 2, hydrochloride] has a documented Ki of 48.7
